- Read-out: ATP-citrate lyase (ACLY), ACLY (gene 47)
- assay.notes: LTEA_HepaRG_ACLY: Life Technologies and Expression Analysis (LTEA) Assay for ATP-citrate lyase (ACLY) using HepaRG (AID 2283466)
- condition.context: mRNA level, 48 h; actives raise or lower the signal
Calls of active or inactive are those of the source. The calls were made as follows: active = hit-call score of the fitted dose curve at least 0.9, where 1 is the maximum; inactive = score below 0.9.
attribute.measured: AC50

Field: example entries. Status: answers known.
compound | reported.value
CSc1ccc(Oc2ccc(S(N)(=O)=O)cc2CN(C)C)cc1C | inactive
c1ccc2occc2c1 | inactive
CCCCC(CC)COC(=O)CCCCCCCC(=O)OCC(CC)CCCC (stereo unspecified) | inactive
CC(=O)[C@@]1(O)CC[C@H]2[C@@H]3CCC4=CC(=O)CC[C@]4(C)[C@H]3CC[C@@]21C | 39.6 µM (active)
O=NO | inactive

Next:
Exercise: Requested read-out: AC50. Entry: O=C(NS(=O)(=O)/C=C/c1cccs1)c1ccc(F)cc1Br
Solution: inactive

Reference for the values: PubChem BioAssay (EPA / NIEHS)
